# protocol notes: Thermodynamic solubility in different media at 37° C.
# Type: physicochemical
# measurement conditions: FaSSIF (fasting artificial simulated intestinal fluid), thermodynamic from solid, FaSSIF, 37° C., read-out: Solubility of crystal form I
quantity kind: solubility at 4 h (µg/mL)
Reply numerically in µg/mL, unit not repeated.

Query: Reported solubility at 4 h, compound C#C[C@@](C)(O)COc1cc(-c2ccc(N3CC4CC(C3)N4Cc3ccc(OC)nc3)nc2)c2c(C#N)cnn2c1 [crystal form I] : ____
Response: 1

----------
# protocol notes: Balb/C mouse pharmacokinetics, oral 5 mg/kg
# Type: in vivo, Balb/C mice
# measurement conditions: male, p.o. 5 mg/kg, plasma, read-out: Blood concentration Cmax
Hi there, I'd appreciate the recorded Cmax for every entry that follows.
Reply numerically in ng/mL, unit not repeated.

Query: Reported Cmax, molecule COc1ccc(CN2C3CC2CN(c2ccc(-c4cc(OC[C@H]5C[C@@](C)(O)C5)cn5ncc(C#N)c45)cn2)C3)cn1 : ____
Response: 1620

Query: Reported Cmax, molecule COc1ccc(CN2C3CC2CN(c2ccc(-c4cc(OCC5(C#N)CCC5)cn5ncc(C#N)c45)cn2)C3)cn1 : ____
Response: 1490

Query: Reported Cmax, molecule C#C[C@](C)(O)COc1cc(-c2ccc(N3CC4CC(C3)N4Cc3cnc(OC)c(F)c3)nc2)c2c(C#N)cnn2c1 : ____
Response: 2400

Query: Reported Cmax, molecule COc1ncc(CN2C3CC2CN(c2ccc(-c4cc(C#C[C@@H](C)O)cn5ncc(C#N)c45)cn2)C3)cc1F : ____
Response: 1700

Query: Reported Cmax, molecule COc1ncc(CN2C3CC2CN(c2ccc(-c4cc(OCC5(C#N)CC5)cn5ncc(C#N)c45)cn2)C3)cc1F : ____
Response: 1940

Query: Reported Cmax, molecule COc1ccc(CN2C3CC2CN(c2ccc(-c4cc(OCC5(C#N)CCOCC5)cn5ncc(C#N)c45)cn2)C3)cn1 : ____
Response: 1330
